# ASSAY TEXT: DNDI: Solubility in phosphate buffer at pH 6.5 determined by nephelometry
# Type: physicochemical

COMPOUND SMILES | solubility kinetic
FC(F)(F)c1ccc(N(c2cncnc2)C2CCN(c3ccc(C(F)(F)F)cn3)CC2)cc1 | < 1.6 µg/mL

###

# Tested on: L6
# ASSAY TEXT: DNDI: Cytotoxicity against L-6 rat myoblasts from skeletal musclE
pIC50: −log10 of the molar value.
Each entry below lists one item and its recorded pIC50 value.
RECORDED ENDPOINT: pIC50

COMPOUND | RECORDED ENDPOINT | REPORTED MEASUREMENT
O=C(c1ccc(F)cc1)N1CCC(N(c2ccc(C(F)(F)F)cc2)c2cccnc2)CC1 | pIC50 | 4.35
CC(O)C(C)N1CCC(N(c2ccc(C(F)(F)F)cc2)c2cccnc2)CC1 (stereo not drawn) | pIC50 | 4.22
Cc1noc(C)c1C(=O)N1CCC(N(c2ccc(C(F)(F)F)cc2)c2cccnc2)CC1 | pIC50 | 4.11

###

# TARGET OR TEST SYSTEM: Cytochrome P450 3A4 (Homo sapiens)
# Sequence (P08684 whole entry): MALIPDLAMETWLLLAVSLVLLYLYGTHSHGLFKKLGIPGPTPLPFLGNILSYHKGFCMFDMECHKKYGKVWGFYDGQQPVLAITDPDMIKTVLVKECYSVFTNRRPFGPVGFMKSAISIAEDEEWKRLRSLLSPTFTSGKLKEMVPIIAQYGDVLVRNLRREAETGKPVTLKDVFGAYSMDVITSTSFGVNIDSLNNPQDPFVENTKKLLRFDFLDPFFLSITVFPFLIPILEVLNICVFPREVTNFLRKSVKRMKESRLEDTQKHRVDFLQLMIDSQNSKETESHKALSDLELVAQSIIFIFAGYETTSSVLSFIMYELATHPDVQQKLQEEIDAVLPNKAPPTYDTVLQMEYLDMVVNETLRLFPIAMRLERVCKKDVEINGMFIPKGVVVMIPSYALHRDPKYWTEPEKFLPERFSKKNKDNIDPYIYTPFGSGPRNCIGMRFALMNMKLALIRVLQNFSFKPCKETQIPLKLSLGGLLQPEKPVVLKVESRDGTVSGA
pIC50: −log10 of the molar value.
Each entry below lists one item and its recorded pIC50 value.

COMPOUND | BOUND TYPE | pIC50
CC(=O)C(C)N1CCC(N(c2ccc(C(F)(F)F)cc2)c2cccnc2)CC1 (stereo not drawn) | = | 5.30
CC(O)C(C)N1CCC(N(c2ccc(C(F)(F)F)cc2)c2cccnc2)CC1 (stereo not drawn) | < | 4.70
N#Cc1cc(C(F)(F)F)ccc1N1CCC(N(c2ccc(Cl)cc2)c2cccnc2)CC1 | < | 4.70
N#Cc1cc(C(F)(F)F)ccc1N1CCC(N(c2ccc(C(F)(F)F)cc2)c2cccnc2)CC1 | < | 4.70
CCC(C(C)O)N1CCC(N(c2ccc(C(F)(F)F)cc2)c2cccnc2)CC1 (stereo not drawn) | = | 4.77
CN(C)S(=O)(=O)c1cccc(N2CCC(N(c3ccc(C(F)(F)F)cc3)c3cccnc3)CC2)c1 | = | 5.15
CC(C)C(O)CN1CCC(N(c2ccc(C(F)(F)F)cc2)c2cccnc2)CC1 (stereo not drawn) | < | 4.70
CCC(C(C)=O)N1CCC(N(c2ccc(C(F)(F)F)cc2)c2cccnc2)CC1 (stereo not drawn) | = | 5.00
Cn1nc(C2CC2)cc1N1CCC(N(c2ccc(C(F)(F)F)cc2)c2cccnc2)CC1 | < | 4.70
N#Cc1ccc(N(c2cccnc2)C2CCN(c3ccc(F)c(F)c3)CC2)cc1 | = | 5.37
CS(=O)(=O)c1ccc(N2CCC(N(c3ccc(Cl)cc3)c3cccnc3)CC2)cc1 | = | 5.70
CN(C)S(=O)(=O)c1cccc(N2CCC(N(c3ccc(C#N)cc3)c3cccnc3)CC2)c1 | = | 5.22
FC(F)(F)c1ccc(N(c2cccnc2)C2CCN(C(c3ccccc3)C(F)(F)F)CC2)cc1 (stereo not drawn) | < | 4.70

###

# ASSAY TEXT: DNDI: Solubility in 0.01M HCl at pH 2 determined by nephelometry
Each entry below lists one item and its recorded solubility kinetic value.

COMPOUND | solubility kinetic
Fc1cnc(N2CCC(N(c3ccc(C(F)(F)F)cc3)c3cccnc3)CC2)nc1 | > 100 µg/mL
Cn1nc(C2CC2)cc1N1CCC(N(c2ccc(C(F)(F)F)cc2)c2cccnc2)CC1 | 50 µg/mL
FC(F)(F)c1ccc(N2CCC(N(c3ccc(C(F)(F)F)cc3)c3cncnc3)CC2)cc1 | < 1.6 µg/mL
FC(F)(F)c1ccc(N(c2cccnc2)C2CCN(c3ccc(Cl)cc3)CC2)cc1 | > 100 µg/mL
CC(C)(C)CC(=O)N1CCC(N(c2ccc(Cl)cc2)c2cccnc2)CC1 | > 100 µg/mL
O=C(c1ccccc1C(F)(F)F)N1CCC(N(c2ccc(C(F)(F)F)cc2)c2cccnc2)CC1 | > 100 µg/mL
CN(C)S(=O)(=O)c1cccc(N2CCC(N(c3ccc(C#N)cc3)c3cccnc3)CC2)c1 | 50 µg/mL
CS(=O)(=O)c1ccc(N2CCC(N(c3ccc(Cl)cc3)c3cccnc3)CC2)cc1 | > 100 µg/mL
CC(C)C(O)CN1CCC(N(c2ccc(C(F)(F)F)cc2)c2cccnc2)CC1 (configuration not stated) | > 100 µg/mL
FC(F)(F)c1ccc(N(c2cccnc2)C2CCN(C(c3ccccc3)C(F)(F)F)CC2)cc1 (configuration not stated) | > 100 µg/mL
CC(C)(O)CN1CCC(N(c2ccc(C#N)cc2)c2cccnc2)CC1 | > 100 µg/mL
O=C(C1CC1)N1CCC(N(c2ccc(Cl)cc2)c2cccnc2)CC1 | > 100 µg/mL
Cc1noc(C)c1C(=O)N1CCC(N(c2ccc(C(F)(F)F)cc2)c2cccnc2)CC1 | > 100 µg/mL
O=C(c1ccc(F)cc1)N1CCC(N(c2ccc(C(F)(F)F)cc2)c2cccnc2)CC1 | > 100 µg/mL
CC(O)C(C)N1CCC(N(c2ccc(C(F)(F)F)cc2)c2cccnc2)CC1 (configuration not stated) | > 100 µg/mL
Cc1ccccc1CN1CCC(N(c2ccc(C(F)(F)F)cc2)c2cccnc2)CC1 | > 100 µg/mL
CC(C)(C)C(=O)N1CCC(N(c2ccc(C(F)(F)F)cc2)c2cccnc2)CC1 | > 100 µg/mL
CC(=O)C(C)N1CCC(N(c2ccc(C(F)(F)F)cc2)c2cccnc2)CC1 (configuration not stated) | > 100 µg/mL
FC(F)(F)c1ccc(N(c2cccnc2)C2CCN(c3ccc(C(F)(F)F)cn3)CC2)cc1 | > 100 µg/mL
FC(F)(F)c1ccc(N(c2cccnc2)C2CCN(c3nccs3)CC2)cc1 | > 100 µg/mL
CC(C)(F)CN1CCC(N(c2ccc(C(F)(F)F)cc2)c2cccnc2)CC1 | > 100 µg/mL
N#Cc1cc(C(F)(F)F)ccc1N1CCC(N(c2ccc(C(F)(F)F)cc2)c2cccnc2)CC1 | 12.5 µg/mL
CCC(C(C)=O)N1CCC(N(c2ccc(C(F)(F)F)cc2)c2cccnc2)CC1 (configuration not stated) | > 100 µg/mL
N#Cc1ccccc1N1CCC(N(c2ccc(C(F)(F)F)cc2)c2cccnc2)CC1 | > 100 µg/mL
O=C(c1ccccc1)N1CCC(N(c2ccc(Cl)cc2)c2cccnc2)CC1 | > 100 µg/mL
FC(F)(F)c1ccc(N(c2cccnc2)C2CCN(c3ccccc3)CC2)cc1 | > 100 µg/mL
N#Cc1ccc(N(c2cccnc2)C2CCN(c3ccc(F)c(F)c3)CC2)cc1 | 6.3 µg/mL
CN(C)S(=O)(=O)c1cccc(N2CCC(N(c3ccc(C(F)(F)F)cc3)c3cccnc3)CC2)c1 | 25 µg/mL
CS(=O)(=O)N1CCC(N(c2ccc(Cl)cc2)c2cccnc2)CC1 | > 100 µg/mL
FC(F)(F)c1ccc(N(c2cccnc2)C2CCN(c3ncccn3)CC2)cc1 | > 100 µg/mL
Cc1ncsc1C(=O)N1CCC(N(c2ccc(C(F)(F)F)cc2)c2cccnc2)CC1 | > 100 µg/mL
FC(F)(F)c1ccc(N(c2cccnc2)C2CCN(Cc3cccc(C(F)(F)F)c3)CC2)cc1 | > 100 µg/mL

###

Each entry below lists one item and its recorded log10 of IC50 value.
# Tested on: Trypanosoma cruzi
# ASSAY TEXT: DNDI: Chagas in Vitro
# Format: functional, organism-based, Tulahuen C4 (LacZ)
RECORDED ENDPOINT: log10 of IC50 (log10 of the value in nM)

MOLECULE | RECORDED ENDPOINT | REPORTED MEASUREMENT
FC(F)(F)c1ccc(N(c2cccnc2)C2CCN(C(c3ccccc3)C(F)(F)F)CC2)cc1 (stereo unspecified) | log10 of IC50 | 3.71
FC(F)(F)c1ccc(N(c2cncnc2)C2CCN(c3ccc(C(F)(F)F)nc3)CC2)cc1 | log10 of IC50 | 1.20
FC(F)(F)c1ccc(N(c2cccnc2)C2CCN(c3ccc(Cl)cc3)CC2)cc1 | log10 of IC50 | 1.34
O=C(c1ccc(F)cc1)N1CCC(N(c2ccc(C(F)(F)F)cc2)c2cccnc2)CC1 | log10 of IC50 | 0.89

###

Each entry below lists one item and its recorded log10(half-life) value.
# ASSAY TEXT: DNDI: Metabolism
# Assay type: ADME, Microsome
# CONDITION CONTEXT: rat, microsomes
RECORDED ENDPOINT: log10(half-life) (log10 of the value in min)

COMPOUND SMILES | log10(half-life)
Cc1noc(C)c1C(=O)N1CCC(N(c2ccc(C(F)(F)F)cc2)c2cccnc2)CC1 | 1.34
FC(F)(F)c1ccc(N(c2cccnc2)C2CCN(c3ccc(C(F)(F)F)cn3)CC2)cc1 | 2.06
O=C(C1CC1)N1CCC(N(c2ccc(Cl)cc2)c2cccnc2)CC1 | 1.00
CC(C)(C)C(=O)N1CCC(N(c2ccc(C(F)(F)F)cc2)c2cccnc2)CC1 | 1.12
O=C(c1ccccc1C(F)(F)F)N1CCC(N(c2ccc(C(F)(F)F)cc2)c2cccnc2)CC1 | 1.38
O=C(c1ccc(F)cc1)N1CCC(N(c2ccc(C(F)(F)F)cc2)c2cccnc2)CC1 | 1.22
Cc1ncsc1C(=O)N1CCC(N(c2ccc(C(F)(F)F)cc2)c2cccnc2)CC1 | 1.45
CC(C)(C)CC(=O)N1CCC(N(c2ccc(Cl)cc2)c2cccnc2)CC1 | 0.69
O=C(c1ccccc1)N1CCC(N(c2ccc(Cl)cc2)c2cccnc2)CC1 | 0.88
CS(=O)(=O)N1CCC(N(c2ccc(Cl)cc2)c2cccnc2)CC1 | 1.44
